Tested on: HCC 2998
Assay: NCI tumour cell line growth inhibition, 48 h
Active and inactive are the calls of the source. No stated cut-off is given here; in the data, active = GI50 up to about 1.1 µM and inactive = higher.
measured-property: GI50

Prompt line: Look at this molecule and give its reported GI50. `CCc1c2c([nH]c(=S)c1C#N)CCC2`
Response line: > 100 µM (inactive)

Prompt line: Quick one: `CN(C)c1ccc2c(c1)oc(=O)c1ccccc12`
Response line: 14.9 µM (inactive)

Prompt line: Moving on to the next molecule: `CC(=O)c1c[nH]cc1CO`
Response line: > 10 µM (inactive)

---

Tested on: HOP-92
Assay: NCI tumour cell line growth inhibition, 48 h
Active and inactive are the calls of the source. No stated cut-off is given here; in the data, active = GI50 up to about 1.1 µM and inactive = higher.
Hi there, I'd appreciate the recorded GI50 for every entry that follows.

Prompt line: Give GI50 (HOP-92) of the following compound: COc1cc(C2S/C(=C/c3ccccc3)C(=O)N2c2cccc(Cl)c2)cc(OC)c1OC (stereo not drawn)
Response line: 96.4 µM (inactive)

Prompt line: Now consider `c1ccc([P+](Cc2csnn2)(c2ccccc2)c2ccccc2)cc1` .
Response line: 80 µM (inactive)

Prompt line: Lookup `CN(C)c1ccc2c(c1)oc(=O)c1ccccc12`
Response line: 12.3 µM (inactive)

Prompt line: // same read-out, input: CCOC(=O)C(=O)C(/C(=N/N(C)C)C(=O)Nc1ccc(C)cc1C)c1nc2ccccc2nc1O (stereo not drawn)
Response line: > 100 µM (inactive)

Prompt line: What about this compound? `Cc1ccc2c3c1O[C@H]1c4[nH]c5ccccc5c4C[C@@]4(O)[C@@H](C2)N(CC2CC2)CC[C@]314`
Response line: 13 µM (inactive)

Prompt line: Another compound: `O=C1CN(c2ccccc2)C(=O)CN1NCNN1CC(=O)N(c2ccccc2)CC1=O`
Response line: > 100 µM (inactive)

Prompt line: Can you handle `COc1cccc(C2C(C(=O)Nc3cc(=O)n(C)c(=O)n3C)=C(C)NC(C)=C2C(=O)Nc2cc(=O)n(C)c(=O)n2C)c1O` next?
Response line: > 100 µM (inactive)

Prompt line: What do you have for `O=C(N/N=C/c1ccccc1)c1c(-c2cccnc2)cnc2ccccc12` ?
Response line: > 100 µM (inactive)

Prompt line: Lookup COc1cccc(CC2Cc3ccccc3CC(=O)N2)c1 (stereo not drawn)
Response line: 24.1 µM (inactive)

Prompt line: Continue with `COc1cc(C2C(C(=O)Nc3ccccc3)=C(C)NC(C)=C2C(=O)Nc2ccccc2)ccc1O`
Response line: 19.3 µM (inactive)

Prompt line: Please give the result for `CCOC(=O)C(=C=Cc1cccs1)C(=O)c1ccccc1` too.
Response line: 5.15 µM (inactive)

Prompt line: Same read-out for `C(=N\Nc1ccccc1)/c1nc2ccccc2nc1/C=N/Nc1ccccc1` ?
Response line: 17.5 µM (inactive)

Prompt line: Same lookup for `COC(=O)C1=C(O)C(O)=C(C(=O)OC)CC1` , please.
Response line: > 100 µM (inactive)

---

Answer each item with its documented GI50.
Test system: CAKI-1
Assay: NCI tumour cell line growth inhibition, 48 h
Active and inactive are the calls of the source. Rule as the data show it: active = GI50 up to about 1.1 µM and inactive = higher.

Prompt line: What measured GI50 is associated with O=C(OCCO)C1CC2CC1C1(C2)OCCO1 (configuration not stated) on CAKI-1?
Response line: > 100 µM (inactive)

Prompt line: Record: COc1ccc(C2OC(c3ccncc3)=NN2C)cc1OC (configuration not stated)
Response line: 73.3 µM (inactive)

Prompt line: Follow-up item: Cc1ccccc1C(C#N)/C(=N/NC(=O)c1cc2ccccc2cc1O)C(=O)Nc1cccc(Cl)c1 (configuration not stated)
Response line: 19.8 µM (inactive)

Prompt line: O=C1CC(c2ccccc2)NCCCCN2CC(CN1)C(C(O)c1ccccc1)C2=O (configuration not stated) , same question.
Response line: > 100 µM (inactive)

Prompt line: Queued: `CCC1=[N+](CC)CCN1CC`
Response line: > 100 µM (inactive)

Prompt line: What would you report for `Cc1ccc2c(=O)c(C(=O)N(CCO)CCO)c[nH]c2n1` ?
Response line: > 100 µM (inactive)

Prompt line: Input `Cc1c(-c2ccccc2)nn2cc(-c3ccccc3)nnc12`
Response line: 45.7 µM (inactive)

Prompt line: Consider next the compound `O=S(=O)(OI(OI(OS(=O)(=O)C(F)(F)F)c1ccccc1)c1ccccc1)C(F)(F)F` in the same way.
Response line: 27.8 µM (inactive)

Prompt line: Same question for COC(=O)C1=C(C)C(=O)[C@H]2C(C(=O)OC)CCCC[C@@H]12 (some centres not stated) please.
Response line: > 100 µM (inactive)

Prompt line: Let us now turn to CC1CC[C@]2(C(=O)O)CCC3(C)C(=C2[C@H]1C)C=CC1[C@@]2(C)CC[C@H](O)C(C)(C)C2CC[C@]13C (some centres not stated)
Response line: 22.8 µM (inactive)

Prompt line: One more compound: `Cc1c(C)c(S(=O)(=O)N(CCCN)OCCCN)c(C)c2c1OC(C)(C)C2`
Response line: 34.4 µM (inactive)

Prompt line: Again, but for `c1cc2c(cc1C1=NCCN1)c1cc(C3=NCCN3)ccc1n2CC1CCCCC1`
Response line: > 100 µM (inactive)

Prompt line: Next record, please: `NC(=S)SCCC(=O)O`
Response line: > 100 µM (inactive)

Prompt line: Could you do the same for CCSC12CC3c4cccc5c4C(CN5C(=O)c4ccccc4)CC3(O1)N(C)C2=O (configuration not stated) , please?
Response line: 92 µM (inactive)

Prompt line: How about `COc1cc(C(=O)N(Cc2cccnc2)C(=S)N(Cc2cccnc2)C(=O)c2cc(OC)c(OC)c(OC)c2)cc(OC)c1OC` ?
Response line: 30.4 µM (inactive)

Prompt line: Lookup Nc1nc(Cl)cc(NCC2(CO)CC(CCCc3ccccc3)C2)n1 (configuration not stated)
Response line: > 100 µM (inactive)

Prompt line: Input `O=C1/C(=C/C=C/c2ccccc2)N=C(c2ccccc2)N1c1ccc(S(=O)(=O)Nc2nccs2)cc1`
Response line: 65.9 µM (inactive)

Prompt line: And `O=C(COC(=O)c1cccc2c(=O)c3ccccc3[nH]c12)Nc1ccc(Cl)cc1` ?
Response line: > 100 µM (inactive)

Prompt line: Queued: CCOc1ccc(NC(=O)CC2C(=O)Nc3ccccc3[S+]2[O-])cc1 (configuration not stated)
Response line: > 67 µM (inactive)

Prompt line: Please give the result for `N#CC(C#N)=C/C=C/c1ccccc1[N+](=O)[O-]` too.
Response line: 5.04 µM (inactive)

Prompt line: Try the compound `CC(=O)Oc1ccccc1C(=O)C1c2cccc(O)c2C(=O)c2c(O)cccc21`
Response line: 1.95 µM (inactive)

Prompt line: Queued: CN(C(=O)C12C3C4C5C3C1(C(=O)O)C5C42)C(C)(C)C (configuration not stated)
Response line: > 100 µM (inactive)

Prompt line: Try O=[N+]([O-])c1ccc2c(c1)nc(Cc1ccc(Cl)cc1)n2C[C@@H]1CCCN2CCCCC12 (some centres not stated) next.
Response line: 15.2 µM (inactive)

Prompt line: And `CSc1ccc(/C=C2\N=C(c3ccccc3)N(c3nc4ccc(Sc5ccccc5)cc4[nH]3)C2=O)cc1` ?
Response line: 21.5 µM (inactive)

Prompt line: What do you have for `CC(=O)Oc1ccccc1[C@H]1CC(=O)C[C@H](c2ccccc2OC(C)=O)C12C(=O)c1ccccc1C2=O` ?
Response line: 20.9 µM (inactive)

Prompt line: Then this compound: CCCCCCCCCCCCCCCCCCOCC(CCP(=O)(CP(=O)(O)O)Oc1ccccc1)OCCCCCCCCCCCCCCCCCC (configuration not stated)
Response line: > 100 µM (inactive)

Prompt line: Can you check `CC(C)(Oc1ccc(-c2cccc3ccccc23)cc1)C(=O)O` next?
Response line: > 100 µM (inactive)

Prompt line: Record: CC(Oc1ccccc1Cl)C(=O)NN1C(=O)CC(=O)N(c2ccccc2)C1=S (configuration not stated)
Response line: 41.2 µM (inactive)

Prompt line: Input `C=C(C)[C@@H]1C[C@H]2O[C@](O)(C(=C)CC(=O)/C=C(/C)C[C@@H]3OC(=O)[C@]24O[C@@H]34)[C@H]1O`
Response line: > 100 µM (inactive)

Prompt line: Follow-up item: COc1ccc(/C=c2/sc3n(c2=O)C(c2ccccc2)C2(O)CCCCC2N=3)cc1 (configuration not stated)
Response line: > 12.5 µM (inactive)

Prompt line: Here is the next compound: `N#CCC(=O)N1CCCCCCC1`
Response line: > 100 µM (inactive)

Prompt line: Now consider `Cc1ccc(C)n1-n1c(Cc2ccccc2)n[nH]c1=O` .
Response line: > 100 µM (inactive)

Prompt line: What about `O=C(CSc1nc2ccccc2s1)c1sc2sc3ccccc3[n+]2c1[O-]` ?
Response line: > 100 µM (inactive)

Prompt line: Try this compound too: `CCc1nc2ccccc2c(=O)n1/N=C(\N=N\c1ccc(Cl)cc1)c1ccccc1Cl`
Response line: 65.5 µM (inactive)

Prompt line: Also, COC1=CC(C2c3cc4c(cc3[C@@H](Nc3ccc(F)cc3)C3COC(=O)[C@H]23)OCO4)=CC(=O)C1=O (some centres not stated) please.
Response line: 4.48 µM (inactive)

Prompt line: Consider next the compound `COC(=O)C1=C(O)C(O)=C(C(=O)OC)CC1` in the same way.
Response line: > 100 µM (inactive)

Prompt line: And then COC(=O)N1CC2(CO)C3CC=C(C(=O)Nc4ccccc4Br)C2C1C3Br (configuration not stated) , what is it?
Response line: > 50 µM (inactive)

Where do these numbers come from? They come from ChEMBL document CHEMBL1201862.
